# Test system: Human immunodeficiency virus 1
# ASSAY_NAME: Antiviral activity against HIV1 89.6 laboratory isolate assessed as inhibition of virus-induced cytopathogenicity by MTT assay
# Format: functional, organism-based
# MEASUREMENT_PARAMETERS: Human immunodeficiency virus 1, isolate 89.6
The threshold is 30 µM. Values of IC50 beneath it are tagged condition met; values meeting or exceeding it are tagged condition not met.

Confirm or reject: IC50 of CC1(C)CC(NC(=O)C(=O)Nc2ccc(C(F)(F)F)cc2)CC(C)(C)N1 lies strictly below 30 µM
condition met

Confirm or reject: IC50 of CC1(C)CC(NC(=O)C(=O)Nc2ccccc2)CC(C)(C)N1 lies strictly below 30 µM
condition not met

Confirm or reject: IC50 of CC1(C)CC(NC(=O)C(=O)Nc2ccc([N+](=O)[O-])cc2)CC(C)(C)N1 lies strictly below 30 µM
condition not met

Confirm or reject: IC50 of Cc1ccc(NC(=O)C(=O)NC2CC(C)(C)NC(C)(C)C2)cc1 lies strictly below 30 µM
condition not met

Confirm or reject: IC50 of CC1(C)CC(NC(=O)C(=O)Nc2ccc(Br)cc2)CC(C)(C)N1 lies strictly below 30 µM
condition met

Confirm or reject: IC50 of COc1ccc(NC(=O)C(=O)NC2CC(C)(C)NC(C)(C)C2)cc1 lies strictly below 30 µM
condition not met

Confirm or reject: IC50 of CC1(C)CC(NC(=O)C(=O)Nc2ccc(Cl)cc2)CC(C)(C)N1 lies strictly below 30 µM
condition met

Confirm or reject: IC50 of CC1(C)CC(NC(=O)C(=O)Nc2ccc(F)cc2)CC(C)(C)N1 lies strictly below 30 µM
condition not met

The measured values listed here are drawn from ChEMBL document CHEMBL1153139.
